Tested on: MDA-MB-231 breast
run_description: NCI tumour cell line growth inhibition, 48 h
Decide using TGI: a value greater than or equal to 20 µM is Met, a smaller one is Not met.

INSERT INTO results (compound, category) VALUES
  ('CC1=NN(C(=O)c2ccccc2O)C(=O)/C1=C/c1ccccc1O', 'Met'),
  ('CC(=O)N(CCc1ccccc1)C(C#N)c1ccc(OCCCCCCCCCCOc2ccc(C(C#N)N(CCc3ccccc3)C(C)=O)cc2)cc1 (stereo unspecified)', 'Met'),
  ('O=C(CCc1ccc(O)cc1)NCCc1cccc(OCc2ccccc2)c1', 'Met'),
  ('COC(=O)C1=C(\c2ccccc2)c2ccccc2C(=O)N(C2CCCCC2)/C=C\1', 'Met'),
  ('O=c1[nH]nc(Cc2ccccc2)n1/N=C/c1ccccc1Cl', 'Met'),
  ('NC(=O)C(c1ccccc1)N1OC2C(=O)N(c3cccc4ccccc34)C(=O)C2C1c1c2ccccc2c(Cl)c2ccccc12 (stereo unspecified)', 'Not met'),
  ('O=C(Nc1ccc(F)cc1F)c1cc(Br)ccc1O', 'Not met'),
  ('CCC1=CC2Cc3nc4cc(Cl)ccc4c(N)c3C(C1)C2 (stereo unspecified)', 'Not met'),
  ('CCCCC(=O)NC1(c2cc3ccccc3s2)CCCCC1', 'Met'),
  ('COc1cc(C(c2cc3c(cc2O)OCO3)N2CCCCC2)cc(OC)c1OC (stereo unspecified)', 'Met'),
  ('c1ccc2c(c1)-c1ccccc1C2N1CC2CCC(CC2)C1', 'Met');

###

Property: TGI; scope: individual compounds
System: MDA-MB-435
run_description: NCI tumour cell line growth inhibition, 48 h
parameter_measured: TGI

INSERT INTO assay_data (compound, experimental_result) VALUES
  ('Cc1ccc(-c2nc(N)nc3c2nnn3Cc2cccc(CO[C@H]3CCOC3)n2)o1', '> 100 µM'),
  ('CCCCCCCCCCCCC(O)C1CCC(C(O)CCCCCCC(O)CCCCCCCC2=CC(C)OC2=O)O1 (stereo unspecified)', '> 100 µM'),
  ('N#CC(Nc1ccccc1)c1ccc(C(C#N)Nc2ccccc2)cc1 (stereo unspecified)', '> 100 µM'),
  ('CCCCC(=O)NC1(c2cc3ccccc3s2)CCCCC1', '> 100 µM'),
  ('N#Cc1c(Cl)c2ccccc2n2c1nc1ccccc12', '> 100 µM'),
  ('CCOP(=O)(OCC)c1ccc(=O)[nH]c1-c1cccs1', '> 100 µM');

###

Test system: EKVX NSCLC
run_description: NCI tumour cell line growth inhibition, 48 h
Listed here are molecules together with their documented TGI.
parameter_measured: TGI

INSERT INTO assay_data (molecule, experimental_result) VALUES
  ('CC1=NN(C(=O)c2ccccc2O)C(=O)/C1=C/c1ccccc1O', '41.6 µM'),
  ('O=c1ccnc2c1ccc1[nH]cccc12', '> 100 µM'),
  ('CCC1=CC2Cc3nc4cc(Cl)ccc4c(N)c3C(C1)C2 (stereo not drawn)', '11.6 µM'),
  ('CCCCc1ccc(-n2c3nc(=O)n(C)c(=O)c-3nc3ccccc32)cc1', '15.5 µM'),
  ('C[C@H]1C[C@H](C)c2ccccc2N(C)C1=Nc1ccccc1', '> 100 µM'),
  ('O=c1[nH]c2c3ccccc3ccc2c2cc3c(cc12)OCO3', '> 100 µM'),
  ('O=c1c2cccnc2cc(-c2ccccc2)n1CCO', '> 100 µM'),
  ('COC(=O)C1=Cc2cc(OC)c(O)cc2[C@@H](c2ccc(O)c(OC)c2)[C@@H]1C(=O)OC', '> 100 µM');

###

Tested on: OVCAR-3 ovarian
run_description: NCI tumour cell line growth inhibition, 48 h; in the data active means GI50 below about 0.43 µM; inactive means the rest
Possible outcomes: active, inactive

INSERT INTO assay_data (compound_structure, category) VALUES
  ('COc1cccc(-c2nc3sccn3c2-c2ccnc(NCCNS(=O)(=O)c3ccccc3)c2)c1', 'inactive'),
  ('O=c1[nH]ccc2nc(N3CCC(O)CC3)nc(Nc3cccc(C(F)(F)F)c3)c12', 'inactive'),
  ('O=C([CH-]C(=O)c1ccccc1)c1ccccc1.O=C([CH-]C(=O)c1ccccc1)c1ccccc1.O=C([CH-]C(=O)c1ccccc1)c1ccccc1.[OH3+].[Y+3]', 'inactive'),
  ('C=CCN1C=CC(=O)[C@H](O[Si](C)(C)C(C)(C)C)[C@@H]1/C=C/c1ccccc1', 'inactive'),
  ('Cc1cc(I)cc(CN(C)CCN2CCCC2)c1O', 'inactive'),
  ('CCN=c1cc2sc3cc(NCC)c(C)cc3nc-2cc1C', 'active');

###

Form field: TGI (one value per entry).
System: MDA-MB-435
run_description: NCI tumour cell line growth inhibition, 48 h
parameter_measured: TGI

INSERT INTO assay_data (molecule, experimental_system, experimental_result) VALUES
  ('COc1ccc(NC(C)=O)cc1C1CCC(=O)N1 (stereo not given)', 'MDA-MB-435', '> 100 µM'),
  ('COc1cccc(-c2nc3sccn3c2-c2ccnc(NCCNS(=O)(=O)c3ccccc3)c2)c1', 'MDA-MB-435', '> 100 µM'),
  ('Cn1c(Nc2ccccc2)c(C=Nc2ccccc2)c(=O)n(C)c1=O', 'MDA-MB-435', '> 100 µM'),
  ('O=c1oc2ccccc2nc1/C=C(\O)c1ccc([N+](=O)[O-])cc1', 'MDA-MB-435', '> 100 µM'),
  ('CN(C)C(=O)Nc1cc2c3c(c1)CCCN3CCC2', 'MDA-MB-435', '> 10 µM');

###

# key: entry, value: TGI
Tested on: 786-0 renal
run_description: NCI tumour cell line growth inhibition, 48 h
parameter_measured: TGI

INSERT INTO measurements (compound, parameter_measured, experimental_result) VALUES
  ('CCCCC(=O)NC1(c2cc3ccccc3s2)CCCCC1', 'TGI', '> 100 µM'),
  ('O=C(Nc1ccc(F)cc1)C(=O)C(C1OC(=O)c2ccccc21)[N+](=O)[O-] (stereo not drawn)', 'TGI', '> 100 µM'),
  ('COc1cc(C=Nc2ccc(C(C)C)cc2)cc(OC)c1OC', 'TGI', '> 100 µM'),
  ('O=[N+]([O-])c1ccc(N=Nc2c(O)ccc3ccccc23)cc1', 'TGI', '> 100 µM'),
  ('COc1ccc2c(c1)CCc1[nH]c3ccccc3c1CCCC2', 'TGI', '> 10 µM'),
  ('COc1cccc2c(Nc3ccc(S(=O)(=O)NC(C)=O)cc3)c3ccc([N+](=O)[O-])cc3nc12', 'TGI', '> 100 µM'),
  ('NNc1nc2ccccc2s1', 'TGI', '> 100 µM'),
  ('Cc1cccc2[s+]snc12', 'TGI', '> 100 µM'),
  ('O=C1c2ccccc2-c2ccc(N=Nc3c(O)ccc4ccccc34)cc21', 'TGI', '> 100 µM'),
  ('CC(=O)/C(=C\C1=CCCO1)C(=O)Nc1ccccc1C', 'TGI', '> 100 µM'),
  ('CCCC(C)C[C@@H](C)CC(C)/C=C(\C)c1oc(=O)c(C)c(O)c1C (stereo partly drawn) (tested in a mixture with another compound)', 'TGI', '29.5 µM'),
  ('COC(=O)C12C(=O)O[C@H](C)C1(O)C(C)C(=O)N2C (stereo partly drawn)', 'TGI', '> 100 µM'),
  ('Cc1cc(I)cc(CN(C)CCN2CCCC2)c1O', 'TGI', '59.8 µM'),
  ('CC1=C(C(=O)NCCc2ccccc2)CC(C(=O)NCCc2ccccc2)=C(C)N1', 'TGI', '> 100 µM'),
  ('N#Cc1c(Cl)/c(=C/O)c(=O)n2c1nc1ccccc12', 'TGI', '> 100 µM'),
  ('COc1cc(Nc2cnc3cc(F)c(F)cc3n2)cc(OC)c1', 'TGI', '> 100 µM'),
  ('Cc1cc(C)nc(NS(=O)(=O)c2ccc(Nc3c4ccc(Cl)cc4nc4c(C(=O)Nc5ccc(S(=O)(=O)N=C(N)N)cc5)cccc34)cc2)n1', 'TGI', '> 100 µM'),
  ('NC(=O)C(c1ccccc1)N1OC2C(=O)N(c3cccc4ccccc34)C(=O)C2C1c1c2ccccc2c(Cl)c2ccccc12 (stereo not drawn)', 'TGI', '21.4 µM');

###

Tested on: HL-60(TB) leukemia
run_description: NCI tumour cell line growth inhibition, 48 h
Listed here: items and their measured TGI.
parameter_measured: TGI

INSERT INTO assay_data (molecule, experimental_system, experimental_result) VALUES
  ('CC(=O)N/C(=C\c1cccc([N+](=O)[O-])c1)c1nc2c3c(ccc2[nH]1)C(=O)c1ccccc1C3=O', 'HL-60(TB) leukemia', '59.8 µM'),
  ('COc1cc(C2C3=C(COC3=O)Oc3cc4c(cc32)OCO4)ccc1OC(C)=O (configuration not stated)', 'HL-60(TB) leukemia', '0.907 µM'),
  ('CC(=O)Nc1c(C)ccc2c1C(=O)c1ccccc1C2=O', 'HL-60(TB) leukemia', '> 100 µM'),
  ('CN(C)C(=O)Nc1cc2c3c(c1)CCCN3CCC2', 'HL-60(TB) leukemia', '> 10 µM'),
  ('Cc1ccc(NC(=O)CC(=O)n2nc(-c3ccccc3)c(N=Nc3ccccc3Cl)c2-c2ccccc2)cc1', 'HL-60(TB) leukemia', '> 100 µM'),
  ('O=C1c2cc([N+](=O)[O-])ccc2-c2cccc(F)c21', 'HL-60(TB) leukemia', '> 100 µM'),
  ('CC1(C)CCC[C@@]2(C)C1CC[C@H]1CC(O)C3(C)CCC12C3 (some centres not stated)', 'HL-60(TB) leukemia', '51.2 µM'),
  ('O=c1cc(CBr)c2ccc(O)cc2o1', 'HL-60(TB) leukemia', '> 100 µM'),
  ('O=C1c2ccccc2C2=Nc3ccncc3CN12', 'HL-60(TB) leukemia', '> 100 µM'),
  ('Cc1cccc(Cl)c1NC(=O)/C=C/c1ccccc1', 'HL-60(TB) leukemia', '> 100 µM'),
  ('O=C1c2ccccc2C2(O)NC(=S)N(c3ccccc3)C12O (configuration not stated)', 'HL-60(TB) leukemia', '> 100 µM'),
  ('Cc1ccc(/C=C/C(=O)c2sc(-c3cccnc3)nc2C)cc1', 'HL-60(TB) leukemia', '> 100 µM');

All values here come from PubChem BioAssay (NCI).
